test system: c-Abl (mouse); experiment: phosphorylation enrichment, bacterial display (enrichment ratio); higher = better substrate or ligand; peptides without Tyr show the background;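 further: 11-residue human phosphosite peptides and single-mutation variants displayed on the E. coli surface, counted by deep sequencing, each peptide's frequency after selection divided by its frequency in the unselected input library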;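 further: frequency after pTyr selection over input frequency; kinase dosed for 20-30% of maximal phosphorylation in three min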
# thresholds on phosphorylation enrichment define classes: band 1: < 0.6; band 2: ≥ 0.6 and < 0.8; band 3: ≥ 0.8

Request: Category of VGTKWYMAPEV [ACVRL1_Y375_R374W] :
Response: band 2

Request: Category of MEYLPYGSLRD [JAK2_Y934] :
Response: band 3

Request: Category of ANQDDYISFRH [IMP4_Y226] :
Response: band 1

Request: Category of NFFDTYIKTCL [IQGAP2_Y1445_YF] :
Response: band 3

Request: Category of PDGVEYLKNNP [GRIN3A_Y831_D835N] :
Response: band 2

Request: Category of LEAVSYSSRYA [RNLS_Y190] :
Response: band 1

Request: Category of DRIVNYSRASV [ATP7A_Y1459_I1464V] :
Response: band 1

Request: Category of IKIMGSSIRTI [IDS_Y490_Y490S] :
Response: band 1

Request: Category of QAKRKYQEASK [FES_Y156] :
Response: band 1

Request: Category of YRGYSYDDIPD [TMEM230_Y112] :
Response: band 2

Request: Category of SMVVPYEPPEV [TP53_Y220_V216M] :
Response: band 3

Request: Category of QPSPSYDSSRG [TCF12_Y70] :
Response: band 1

Request: Category of KRFRIYHLAIS [BRCA2_Y3009_T3013I_YF] :
Response: band 3

Request: Category of FFRDGCMPRQF [GSS_Y270_Y270C_YF] :
Response: band 2

Request: Category of QFKDKYLAKHN [CASK_Y712_YF] :
Response: band 1

Request: Category of EFDRLYEEFTR [PIK3R1_Y467_YF] :
Response: band 3

Request: Category of KELAPYDENRF [RPS19_Y48_W52R] :
Response: band 3

Request: Category of IRKKFYRAILE [CHD7_Y1218_Q1214R_YF] :
Response: band 1

Request: Category of CEHRGYLYLAI [TEK_Y897] :
Response: band 3

Request: Category of EVLKNYSQQKD [GOLGA4_Y1551_N1552S] :
Response: band 1

Request: Category of LLKMMYLMLDN [STAT1_Y203_K201M] :
Response: band 3

Request: Category of GGMAEYTRLHN [EHHADH_Y4] :
Response: band 1

Request: Category of QTLEAYIRWNK [SPAST_Y604] :
Response: band 3

Request: Category of GDNNIYVTKII [DLG1_Y349_S347N] :
Response: band 2

Request: Category of EFGRRYGFSCQ [CCDC93_Y209_R213C_YF] :
Response: band 2

Request: Category of TFTVSYLPDMS [FLNC_Y1602_YF] :
Response: band 3

Request: Category of DEEYEYMNRRR [ERBB3_Y1199] :
Response: band 2

Request: Category of TLDTDYQMTKR [ADA_Y308] :
Response: band 1

Request: Category of QRRLVYYEGGA [RYR1_Y245] :
Response: band 2

Request: Category of STGSRYQPLAS [NCAPD2_Y1325] :
Response: band 1

Request: Category of KAIMTYVFSFF [ACTN4_Y260_S262F_YF] :
Response: band 1
